# Tested on: Candida albicans
# assay_remarks: Antifungal activity against Candida albicans Strain 13 by broth microdilution method
# Type: functional
quantity_kind: MIC (µg/mL)

{"compound": "COC(=O)c1ccc(COC(Cn2ccnc2)c2ccc(Cl)cc2Cl)cc1 (stereo not given)", "quantity_kind": "MIC", "reported": 0.06}
{"compound": "COc1ccc(CCOC(Cn2ccnc2)c2ccc(Cl)cc2Cl)cc1OC (stereo not given)", "quantity_kind": "MIC", "reported": 0.5}
{"compound": "CCC(C)n1ncn(-c2ccc(N3CCN(c4ccc(OCC5COC(Cn6cncn6)(c6ccc(Cl)cc6Cl)O5)cc4)CC3)cc2)c1=O (stereo not given) [ITRACONAZOLE]", "quantity_kind": "MIC", "reported": 0.06}
{"compound": "O=C(O)C(OC(Cn1ccnc1)c1ccc(Cl)cc1Cl)c1ccccc1Cl (stereo not given)", "quantity_kind": "MIC", "reported": 0.25}
{"compound": "OCc1ccc(COC(Cn2ccnc2)c2ccc(Cl)cc2Cl)cc1 (stereo not given)", "quantity_kind": "MIC", "reported": 0.12}

----------
# Tested on: Candida albicans
# assay_remarks: Antifungal activity against Candida albicans Strain 9 by broth microdilution method
# Format: functional

{"compound": "OCc1ccc(COC(Cn2ccnc2)c2ccc(Cl)cc2Cl)cc1 (stereo not given)", "tested_target": "Candida albicans", "unit_abbrev": "µg/mL", "MIC": 0.5}
{"compound": "COC(=O)c1ccc(COC(Cn2ccnc2)c2ccc(Cl)cc2Cl)cc1 (stereo not given)", "tested_target": "Candida albicans", "unit_abbrev": "µg/mL", "MIC": 0.25}
{"compound": "CCC(C)n1ncn(-c2ccc(N3CCN(c4ccc(OCC5COC(Cn6cncn6)(c6ccc(Cl)cc6Cl)O5)cc4)CC3)cc2)c1=O (stereo not given)", "tested_target": "Candida albicans", "unit_abbrev": "µg/mL", "MIC": 0.12}
{"compound": "O=C(O)C(OC(Cn1ccnc1)c1ccc(Cl)cc1Cl)c1ccccc1Cl (stereo not given)", "tested_target": "Candida albicans", "unit_abbrev": "µg/mL", "MIC": 0.5}
{"compound": "COc1ccc(CCOC(Cn2ccnc2)c2ccc(Cl)cc2Cl)cc1OC (stereo not given)", "tested_target": "Candida albicans", "unit_abbrev": "µg/mL", "MIC": 0.5}

----------
# System: Candida albicans
# assay_remarks: Antifungal activity against Candida albicans Strain 24 by broth microdilution method
# Type: functional
quantity_kind: MIC

{"compound": "O=C(O)C(OC(Cn1ccnc1)c1ccc(Cl)cc1Cl)c1ccccc1Cl (stereo not given)", "reported": "0.12 µg/mL"}
{"compound": "COc1ccc(CCOC(Cn2ccnc2)c2ccc(Cl)cc2Cl)cc1OC (stereo not given)", "reported": "0.5 µg/mL"}
{"compound": "OCc1ccc(COC(Cn2ccnc2)c2ccc(Cl)cc2Cl)cc1 (stereo not given)", "reported": "0.12 µg/mL"}
{"compound": "CCC(C)n1ncn(-c2ccc(N3CCN(c4ccc(OCC5COC(Cn6cncn6)(c6ccc(Cl)cc6Cl)O5)cc4)CC3)cc2)c1=O (stereo not given)", "reported": "0.03 µg/mL"}
{"compound": "COC(=O)c1ccc(COC(Cn2ccnc2)c2ccc(Cl)cc2Cl)cc1 (stereo not given)", "reported": "0.12 µg/mL"}

----------
# System: Candida albicans
# assay_remarks: Antifungal activity against Candida albicans Strain 8 by broth microdilution method
# Format: functional
quantity_kind: MIC (µg/mL)

{"compound": "OCc1ccc(COC(Cn2ccnc2)c2ccc(Cl)cc2Cl)cc1 (stereo not given)", "tested_target": "Candida albicans", "quantity_kind": "MIC", "reported": 0.12}
{"compound": "COc1ccc(CCOC(Cn2ccnc2)c2ccc(Cl)cc2Cl)cc1OC (stereo not given)", "tested_target": "Candida albicans", "quantity_kind": "MIC", "reported": 0.12}
{"compound": "COC(=O)c1ccc(COC(Cn2ccnc2)c2ccc(Cl)cc2Cl)cc1 (stereo not given)", "tested_target": "Candida albicans", "quantity_kind": "MIC", "reported": 0.12}
{"compound": "CCC(C)n1ncn(-c2ccc(N3CCN(c4ccc(OCC5COC(Cn6cncn6)(c6ccc(Cl)cc6Cl)O5)cc4)CC3)cc2)c1=O (stereo not given) [ITRACONAZOLE]", "tested_target": "Candida albicans", "quantity_kind": "MIC", "reported": 0.03}
{"compound": "O=C(O)C(OC(Cn1ccnc1)c1ccc(Cl)cc1Cl)c1ccccc1Cl (stereo not given)", "tested_target": "Candida albicans", "quantity_kind": "MIC", "reported": 0.5}
